Recorded values, source the supplement of paper PMC10567573.

sequences and their reported protein stability index
# PROCEDURE SUMMARY: protein stability index of a GFP-peptide fusion (GPS, HEK-293T) (PSI 1-6); higher = more stable;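 also: 24-mer peptide tiles fused after GFP, lentivirally expressed, FACS-sorted into six equal bins by GFP/DsRed ratio, decoded by Illumina sequencing, PSI is the read-weighted mean bin number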
# SETTINGS: treatment: DMSO; c terminus: a fixed tail appended
Could you keep your reply to the number by itself?

Solved entries (count: 2):
IVWFSFEFVVRCFACPSQALFFKN [KCNA4]: 2.91
ETKLHLLRQEMVNLRATDVRLMRQ [LURAP1L]: 2.96

Query string: Consider the sequence LLRFGVPSPSTLEPHPRPLLQREL [TNXB] and give its measured protein stability index.
Result string: 3.08

====

# PROCEDURE SUMMARY: protein stability index of a GFP-peptide fusion (GPS, HEK-293T) (PSI 1-6); higher = more stable
# SETTINGS: treatment: MLN4924 1 uM, 8 h; c terminus: a fixed tail appended
METRIC NAME: protein stability index
Could you keep your reply to the number by itself?

Solved entries (count: 3):
PPDLGAQRRHGWNPKDCSENIEVK [SPSB2]: 5.03
PKETQPFPKSEQVYLHFLSVVTED [ZNF232]: 2.99
FLDERLYCESHAKARVKPPEGYDV [PDLIM4]: 3.23

Query string: Consider the sequence LELSYGFENGQKAAVVHHFESFPA [TOR1AIP2] and give its measured protein stability index.
Result string: 2.42

Query string: What do we get for SLFVLDQNDNAPEILYPALPTDGS [PCDHGA10] ?
Result string: 3.84

====

# PROCEDURE SUMMARY: protein stability index of a GFP-peptide fusion (GPS, HEK-293T) (PSI 1-6); higher = more stable
# SETTINGS: treatment: MLN4924 1 uM, 8 h; c terminus: a fixed tail appended
METRIC NAME: protein stability index
Could you keep your reply to the number by itself?

Solved entries (count: 3):
TLYANNVQRVMAQALGIPATECEF [LPCAT4]: 2.58
LLDVKTRLEQEIATYRRLLEGEDA [KRT16]: 4.2
AQMSTLHVSPPPSADPARGLPRSR [PDLIM4]: 4.86

Query string: Consider the sequence IRYQSFNNQSDLEKEMQKMNPYKI [PRIM1] and give its measured protein stability index.
Result string: 3.26

Query string: What do we get for TGLMVSLLCLLHFSIVSVAAHLAL [RTN2] ?
Result string: 2.87

Query string: What do we get for PVCYQCLEEGKHSSHEVKALGAMW [TRIM9] ?
Result string: 2.76

Query string: What do we get for STPVRREVTDKEQEFAARAAKQLE [EPB41L3] ?
Result string: 5.27

====

# PROCEDURE SUMMARY: protein stability index of a GFP-peptide fusion (GPS, HEK-293T) (PSI 1-6); higher = more stable
# SETTINGS: treatment: MLN4924 1 uM, 8 h; c terminus: a fixed tail appended
METRIC NAME: protein stability index
Could you keep your reply to the number by itself?

YFITLGTEIAEQEGNQKGEQATSL [KCNA1]: 3.84

Okay, next one:
Query string: Consider the sequence TLTELRRTVQSLEIDLDSMRNLKA [KRT18] and give its measured protein stability index.
Result string: 3.06

====

sequences and their reported protein stability index
# PROCEDURE SUMMARY: protein stability index of a GFP-peptide fusion (GPS, HEK-293T) (PSI 1-6); higher = more stable
# SETTINGS: treatment: DMSO; c terminus: a fixed tail appended
Could you keep your reply to the number by itself?

GKLKCDICGIICIGPNVLMVHKRS [IKZF1]: 2.91

Query string: Consider the sequence YILECDHHGGDYKHWREWGSHAQT [CRYBA1] and give its measured protein stability index.
Result string: 2.32

Query string: What do we get for IYRFLKLHPRGKNNFSPLHLAVDK [FEM1C] ?
Result string: 2.31

Query string: What do we get for MVVKTFMDMDQDSEEEKELYLNLA [PDS5B] ?
Result string: 2.79

Query string: What do we get for SSSSSGVLMVGPNFRVGKKIGCGN [CSNK1G1] ?
Result string: 3.58

Query string: What do we get for ESLMKDGDKNNDGRIDFDEFLKMM [TNNC2] ?
Result string: 4.53

Query string: What do we get for PPCAWACPVPAHRRGSWRLPYTDG [CTBP1-DT] ?
Result string: 2.92

Query string: What do we get for KKRRMGTYSLVPKKKTKVLKQRTV [EHMT1] ?
Result string: 3.27

====

# PROCEDURE SUMMARY: protein stability index of a GFP-peptide fusion (GPS, HEK-293T) (PSI 1-6); higher = more stable
# SETTINGS: treatment: MLN4924 1 uM, 8 h; c terminus: a fixed tail appended
Assign a class from recorded protein stability index; defined classes: bin A: < 3; bin B: ≥ 3 and < 4; bin C: ≥ 4

EGGGGGSYFSGQGSDTGASLKLAS [JUNB]: bin C
GLHLTDPSQRLVQNCLWTLRNLSD [CTNNB1]: bin A
VTIKHVACGDFFTACLTDRGIIMT [NEK8]: bin A
WEYSSSIQNSDNDLPVVQGSSSFS [TRIM29]: bin C
KSNGFFHGISIPEPEDMETLEEKF [CDKL4]: bin C
PASQHSTPAGLPPSRAKPPTEGAG [FBF1]: bin C
LNPQLVQPAKKPLLWSDPADNKIV [ESRRG]: bin B
EQARAYAEKNCMTFFEVSPLCNFN [RAB40C]: bin A
EIKDKDQLVLRTKEAFDTIQEQKV [SASS6]: bin C
NEWRRPIIQFVESGDDKNSNYFSM [TRIM29]: bin B

Query string: Sort DVDLLDSKVIEILDSQTEIYQYVQ [DLC1] into one of the categories.
Result string: bin B

====

sequences and their reported protein stability index
# PROCEDURE SUMMARY: protein stability index of a GFP-peptide fusion (GPS, HEK-293T) (PSI 1-6); higher = more stable
# SETTINGS: treatment: DMSO; c terminus: a fixed tail appended

EREVRAKNGRVDSEDRRSRHCPYL [USP39]: 4.39
VLAAKERRCGELKRKLGLTALVGL [TPD52L3]: 2.44
RESRGSTRGKRESESRGSSGRVKR [USP39]: 5.14

Query string: Consider the sequence KQRSVCTWGKNKPGIGAVILKRFC [FAN1] and give its measured protein stability index.
Result string: 1.99

Query string: What do we get for RGTPPRRHSFRKHLYLLRGLPGSG [N4BP2L1] ?
Result string: 2.64

Query string: What do we get for MRLSWSVAQGPFDSFVVQYEDTNG [TNXB] ?
Result string: 2.26

Query string: What do we get for QARYHDTPYKPPAGRAAAPELSYR [MYORG] ?
Result string: 3.69

====

# PROCEDURE SUMMARY: protein stability index of a GFP-peptide fusion (GPS, HEK-293T) (PSI 1-6); higher = more stable
# SETTINGS: treatment: MLN4924 1 uM, 8 h; c terminus: a fixed tail appended
sequences and their reported protein stability index
Could you keep your reply to the number by itself?

GSLCAIAGVLTIALPVPVIVSNFN [KCNA4]: 3.13
KLLNITADPMDWSPSNVQKWLLWT [SPDEF]: 2.22

Okay, next one:
Query string: Consider the sequence IRCRHPPPGSHLLYAKMIQKLADL [VDR] and give its measured protein stability index.
Result string: 2.23

====

# PROCEDURE SUMMARY: protein stability index of a GFP-peptide fusion (GPS, HEK-293T) (PSI 1-6); higher = more stable
# SETTINGS: treatment: MLN4924 1 uM, 8 h; c terminus: a fixed tail appended
Decision: protein stability index >= 3 yields true (1), all other cases yield false (0).

Query string: Please indicate if the recorded protein stability index for TASDGGDPLRSGTVLVSVTVFDAN [PCDHGA10] meets or exceeds 3.
Result string: false (0)

====

sequences and their reported protein stability index
# PROCEDURE SUMMARY: protein stability index of a GFP-peptide fusion (GPS, HEK-293T) (PSI 1-6); higher = more stable
# SETTINGS: treatment: DMSO; c terminus: a fixed tail appended

Query string: Consider the sequence GLLALAIGLWGLAVKGSLGSDLGG [TSPAN10] and give its measured protein stability index.
Result string: 4.49

Query string: What do we get for TLYANNVQRVMAQALGIPATECEF [LPCAT4] ?
Result string: 2.49

Query string: What do we get for GDTPIRKKEELLFDDGDDIMATLG [FBF1] ?
Result string: 4.35

====

# PROCEDURE SUMMARY: protein stability index of a GFP-peptide fusion (GPS, HEK-293T) (PSI 1-6); higher = more stable
# SETTINGS: treatment: MLN4924 1 uM, 8 h; c terminus: a fixed tail appended
sequences and their reported protein stability index

Solved entries (count: 3):
VAGDCLDEKQCKQCANKVLQHMKA [LRRC59]: 3.9
VDITPYLDQLDESLRDKVLQLQKG [INTS3]: 4.06
FLESQGIELNPPEKMALDPYTELR [EFHC1]: 3.89

Okay, next one:
Query string: Consider the sequence AIHVLGPIDFEESRFYEIHARARD [PCDHGC5] and give its measured protein stability index.
Result string: 3.01
